Data origin: paper PMC5540273

Test system: GRK7;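 further: KINOMEscan kinase panel screen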
CONDITION_NOTES: concentration: 1 μM, replicates: in singlicate; n = 1
MEASUREMENT_KIND: %Inh (%)

1. CCCNC(=O)Nc1ccc(Oc2ncnc3ccn(C)c23)cc1 : 29
2. CCCC(=O)Nc1n[nH]c2ncc(-c3cccc4ccccc34)cc12 : 0
3. O=C(Nc1n[nH]c2nc(-c3ccccc3)c(Cl)cc12)C1CC1 : 0
4. COc1cc2ncn(-c3cc(OCCCc4ccccc4)c(C(N)=O)s3)c2cc1OC : 0
5. COc1cccc(C2=C(N(C)c3ccccc3)C(=O)NC2=O)c1 : 0
6. Nc1n[nH]c2nnc(-c3ccccc3)c(-c3ccccc3)c12 : 0
7. Nc1nc(N)c2nc(-c3ccccc3)[nH]c2n1 : 4
8. O=C(Nc1n[nH]c2nc(-c3ccccc3)c(Br)cc12)C1CC1 : 0
9. CCn1c(-c2nonc2N)nc2ccccc21 : 25
10. CN(C)c1cc(-c2ccc3c(N)n[nH]c3c2)nc(N)n1 : 0
11. Nc1ncnc2c1ncn2-c1cccc2ccccc12 : 4
12. OCCCNc1nccc(-c2c(-c3cccc(C(F)(F)F)c3)nn3cc(C(F)(F)F)ccc23)n1 : 0
13. CN1C(=O)C(Nc2ccccc2)=C(c2ccccc2)C1=O : 0
14. Cc1nnc(-c2ccc(C)c(-c3ccc(C(=O)O)cc3)c2)o1 : 0
15. Cl.c1ccc(Cn2cnc3cc(Nc4ncnc5ccccc45)ccc32)cc1 : 0
16. COc1cccc(-n2cnc3c(N)ncnc32)c1 : 27
17. Nc1ncnc2c1ncn2-c1ccc(Cl)cc1 : 0
18. COC(=O)c1c(-c2ccccc2)c2cc(Br)ccc2c(=O)n1Cc1ccc(NC(=O)CCC(=O)O)cc1 : 31
19. O=c1cc(N2CCOCC2)nc2n(Cc3ccc(F)c(Cl)c3)ccn12 : 0
20. Cc1ccccc1COc1cc(-n2cnc3cc(Cl)ccc32)sc1C(N)=O : 0
